This section presents compounds with their documented cytotoxicity at 70.5 h values.
# protocol_details: Human HepG2 cell viability assay in 384 well format
# Type: toxicity, cell-based
# Set-up: dose 125 nL, time 70.5 hour; concentration not given beside the values
# assay_setup: HepG2 cells, read-out: Inhibition

[
  {
    "compound": "CN(C)c1ncc(-c2cccc(C(N)=O)c2)c(C2CNCCO2)n1 (configuration not stated)",
    "cytotoxicity at 70.5 h, %": -1.28
  },
  {
    "compound": "CN1CCC2(CCCN(c3nccc(C(F)(F)F)n3)C2)CC1",
    "cytotoxicity at 70.5 h, %": -11.3
  },
  {
    "compound": "CC(C)C1CN(S(=O)(=O)N2CCCC2)CCCN1Cc1ccc(F)cc1 (configuration not stated)",
    "cytotoxicity at 70.5 h, %": -3.07
  },
  {
    "compound": "CCOCC1CN(C(=O)Cc2ccccn2)Cc2cn(C)nc21 (configuration not stated)",
    "cytotoxicity at 70.5 h, %": -10.7
  },
  {
    "compound": "COc1ccc2c(c1)NC(=O)C2OC(=O)CCc1ccc(F)cc1 (configuration not stated)",
    "cytotoxicity at 70.5 h, %": 2.64
  },
  {
    "compound": "Cc1sc2c(C3CCCN(C)C3)nc(C)n2c1C (configuration not stated)",
    "cytotoxicity at 70.5 h, %": 24.3
  },
  {
    "compound": "CCS(=O)(=O)N1Cc2c(Cn3ccnc3)nn(C(C)C)c2C1",
    "cytotoxicity at 70.5 h, %": 10.4
  },
  {
    "compound": "COc1ncccc1CNC(=O)c1cccc(C)n1",
    "cytotoxicity at 70.5 h, %": 11.1
  },
  {
    "compound": "CN1CCCN(S(=O)(=O)c2cn(C)cn2)c2cc(Cl)ccc21",
    "cytotoxicity at 70.5 h, %": -0.299
  },
  {
    "compound": "Cc1nc(CN2CCCCC2CCc2ccc(O)cc2)co1 (configuration not stated)",
    "cytotoxicity at 70.5 h, %": -6.18
  },
  {
    "compound": "CCS(=O)(=O)N1CC(=O)N(CCOc2ccccc2)CC(O)C1 (configuration not stated)",
    "cytotoxicity at 70.5 h, %": -2.23
  },
  {
    "compound": "c1cncc(CN2Cc3nccn3CC(Cn3cccn3)C2)c1 (configuration not stated)",
    "cytotoxicity at 70.5 h, %": -6.13
  }
]

###

This section presents compounds with their documented cytotoxicity at 70.5 h values.
# protocol_details: Human HepG2 cell viability assay in 384 well format
# Format: toxicity, cell-based
# Parameters: dose 125 nL, time 70.5 hour; concentration not given beside the values
# assay_setup: HepG2 cells, read-out: Inhibition
measured_quantity: cytotoxicity at 70.5 h (%)

[
  {
    "compound": "c1ccc(CCCn2ccnc2-c2cn(C3CCNCC3)nn2)nc1",
    "reported_result": 22.4
  },
  {
    "compound": "CN(C)CC(=O)N1Cc2cc(-c3cc[nH]n3)ccc2C1c1cnco1 (centres undefined)",
    "reported_result": -1.64
  },
  {
    "compound": "COC1COC2(CCN(C(=O)c3cscn3)CC2)C1 (centres undefined)",
    "reported_result": -6.82
  },
  {
    "compound": "Cc1ccc(C(=O)OC(C)Cn2cccn2)c(=O)[nH]1 (centres undefined)",
    "reported_result": -0.535
  },
  {
    "compound": "CN1C(=O)CC[C@]12CC[C@@H](NC(=O)NCc1cccnc1)CC2",
    "reported_result": -4
  },
  {
    "compound": "CN(C)C(=O)[C@H]1C[C@@H]2CN(CCc3ccccc3)C[C@H]1O2",
    "reported_result": -6.59
  },
  {
    "compound": "Cc1[nH]nc(CCC(=O)N2CCCC(OCc3cccnc3)C2)c1C (centres undefined)",
    "reported_result": 1.55
  },
  {
    "compound": "Cc1noc2ncnc(NC(CC(C)(C)C)c3cccnc3)c12 (centres undefined)",
    "reported_result": -14
  },
  {
    "compound": "CC(C)c1nc(O)c2nnn(C[C@H]3CCCN(Cc4ccsc4)C3)c2n1",
    "reported_result": -1.06
  },
  {
    "compound": "Cc1csc(CCNC(=O)c2ccc(N(C)C)c(F)c2)n1",
    "reported_result": 13.6
  },
  {
    "compound": "CCCN1CCc2[nH]nc(C(=O)N3CCNC(=O)C3)c2C1",
    "reported_result": -2.77
  },
  {
    "compound": "CCOc1ccc(C(=O)CCC(=O)N(C)Cc2noc(C)n2)cc1C",
    "reported_result": -6.08
  },
  {
    "compound": "Cc1cnn(CCNCc2csc(-c3cccs3)n2)c1",
    "reported_result": -4.79
  },
  {
    "compound": "CC(C)CS(=O)(=O)CC(=O)NC(C)(C)c1cccc(F)c1",
    "reported_result": 6.38
  },
  {
    "compound": "CC(=O)N1CCN([C@@H]2CC[C@@H](NC(=O)c3cc(C)cs3)[C@H]2O)CC1",
    "reported_result": -4.78
  },
  {
    "compound": "CN(C)Cc1nc(C(C)(C)NC(=O)c2ccnn2C)no1",
    "reported_result": 8.69
  },
  {
    "compound": "CCOCCN(CCOCC)c1nc(C)nc2sccc12",
    "reported_result": -0.429
  },
  {
    "compound": "O=C(NCC1CC[C@@]2(CNCCOC2)O1)c1cccnc1 (some centres undefined)",
    "reported_result": -2.12
  },
  {
    "compound": "CCCn1nc(C)c(CNC(=O)c2snnc2C)c1C",
    "reported_result": -13.1
  },
  {
    "compound": "O=C(O)c1ccc(CNC(=O)C2CCN(C(=O)C3CCC3)CC2)s1",
    "reported_result": -12.2
  },
  {
    "compound": "COc1ccc(-n2nnc(C(=O)NCC3CCCCC3)n2)cc1",
    "reported_result": -12.2
  },
  {
    "compound": "COC(=O)CN(C(=O)c1ccc(-n2ccnc2)cc1)C1CCCC1",
    "reported_result": 27.9
  },
  {
    "compound": "CNS(=O)(=O)CC(=O)N(Cc1c(F)cccc1Cl)C1CC1",
    "reported_result": -7.68
  },
  {
    "compound": "CC(C)NC(=O)CN(C)C1CCN(c2ccc(Cl)cn2)CC1",
    "reported_result": -7
  }
]

###

This section presents compounds with their documented cytotoxicity at 70.5 h values.
# protocol_details: Human HepG2 cell viability assay in 384 well format
# Type: toxicity, cell-based
# Design: dose 125 nL, time 70.5 hour; concentration not given beside the values
# assay_setup: HepG2 cells, read-out: Inhibition

[
  {
    "compound": "Cc1ccc(OCC(=O)Nc2cnccc2SCCCO)cc1C",
    "cytotoxicity at 70.5 h, %": 9.63
  },
  {
    "compound": "C=C(C)CN(CC)S(=O)(=O)c1cccc(F)c1C#N",
    "cytotoxicity at 70.5 h, %": -9.8
  },
  {
    "compound": "CC(C)c1cc(C(=O)N(c2ccc(F)cn2)C2CCOCC2)on1",
    "cytotoxicity at 70.5 h, %": 1.54
  },
  {
    "compound": "CCc1nnc(CNCC2CCN(CC(O)c3ccccc3)CC2)o1 (stereo unspecified)",
    "cytotoxicity at 70.5 h, %": 15.4
  },
  {
    "compound": "O=C(O)c1cccnc1CN1CCCCC1CCc1cccc(O)c1 (stereo unspecified)",
    "cytotoxicity at 70.5 h, %": 9.13
  },
  {
    "compound": "Cc1nn(C)c2cn(CC(=O)N3CCN(c4ccccc4)CC3)nc12",
    "cytotoxicity at 70.5 h, %": 7.34
  }
]

###

# protocol_details: Human HepG2 cell viability assay in 384 well format
# Assay type: toxicity, cell-based
# Design: dose 125 nL, time 70.5 hour; concentration not given beside the values
# assay_setup: HepG2 cells, read-out: Inhibition

[
  {
    "molecule": "Cc1cccc(S(=O)(=O)N2CC[C@H]3CO[C@H](CN(C)C)[C@H]3C2)c1",
    "unit_string": "%",
    "cytotoxicity at 70.5 h": -6.86
  },
  {
    "molecule": "COCc1noc(Cc2cc(Cl)c3c(c2)OCCCO3)n1",
    "unit_string": "%",
    "cytotoxicity at 70.5 h": -4.84
  },
  {
    "molecule": "CCC(C)n1cnc(S(=O)(=O)N(C)c2cccnc2N(C)C)c1 (centres undefined)",
    "unit_string": "%",
    "cytotoxicity at 70.5 h": -7.28
  },
  {
    "molecule": "Cc1cc(N2CCC(O)(CN(C)C(=O)CCN)C2)c2cnccc2n1 (centres undefined)",
    "unit_string": "%",
    "cytotoxicity at 70.5 h": -4.6
  },
  {
    "molecule": "COc1ccc(OCc2nccc(-c3cc(C(=O)O)ccn3)n2)cc1",
    "unit_string": "%",
    "cytotoxicity at 70.5 h": -2.16
  },
  {
    "molecule": "CCCN(C(=O)c1ccc(-n2ccnn2)cc1)c1cccnc1",
    "unit_string": "%",
    "cytotoxicity at 70.5 h": -3.08
  },
  {
    "molecule": "COc1ccccc1Oc1ncccc1CNC(=O)[C@@H](N)[C@@H](C)O",
    "unit_string": "%",
    "cytotoxicity at 70.5 h": -1.67
  },
  {
    "molecule": "CCOc1ccc(NC(=O)NC2CCc3nc(C)nn3C2)cc1Cl (centres undefined)",
    "unit_string": "%",
    "cytotoxicity at 70.5 h": -2.45
  },
  {
    "molecule": "Cc1cn2nc(N3CCCN(Cc4noc(C)n4)CC3)sc2n1",
    "unit_string": "%",
    "cytotoxicity at 70.5 h": -4.93
  },
  {
    "molecule": "Cn1ncnc1CNC(=O)N(CCCO)C1CCc2ccccc21 (centres undefined)",
    "unit_string": "%",
    "cytotoxicity at 70.5 h": -6.34
  },
  {
    "molecule": "CC(C)C(=O)NC1CCCN(C(=O)c2cc(Cl)ccc2O)C1 (centres undefined)",
    "unit_string": "%",
    "cytotoxicity at 70.5 h": 15.5
  },
  {
    "molecule": "COc1cccc(C2(NC(=O)CCNC(C)=O)CC2)c1",
    "unit_string": "%",
    "cytotoxicity at 70.5 h": 5.65
  },
  {
    "molecule": "Cc1ccc2[nH]c(CN(C)c3cc(CCN)nc(C)n3)nc2c1",
    "unit_string": "%",
    "cytotoxicity at 70.5 h": -8.93
  },
  {
    "molecule": "CN(c1ccc(Cl)c(C(=O)NCCCN2CCOCC2)c1)S(C)(=O)=O",
    "unit_string": "%",
    "cytotoxicity at 70.5 h": 3.59
  },
  {
    "molecule": "Cc1ccccc1CS(=O)(=O)CC(=O)NC1CCCCNC1=O (centres undefined)",
    "unit_string": "%",
    "cytotoxicity at 70.5 h": -11.3
  },
  {
    "molecule": "CCCC1c2cccn2CCN1C(=O)c1cc(CC)no1 (centres undefined)",
    "unit_string": "%",
    "cytotoxicity at 70.5 h": -2.22
  },
  {
    "molecule": "Cc1cc(C)c(CNC(=O)CC2CCCO2)c(=O)[nH]1 (centres undefined)",
    "unit_string": "%",
    "cytotoxicity at 70.5 h": -3.05
  },
  {
    "molecule": "CCc1ccc(C(=O)N2CC[C@](C)(O)[C@H](C)C2)[nH]1",
    "unit_string": "%",
    "cytotoxicity at 70.5 h": -7.19
  },
  {
    "molecule": "CN(CCOc1ccccc1Cl)S(=O)(=O)N1CCOCC1",
    "unit_string": "%",
    "cytotoxicity at 70.5 h": -7.93
  },
  {
    "molecule": "O=C(Nc1ccccc1F)NC1(CO)CCOCC1",
    "unit_string": "%",
    "cytotoxicity at 70.5 h": -12.1
  },
  {
    "molecule": "COc1cccc(CNC(=O)c2ccccc2-n2cnc(CN)c2)c1",
    "unit_string": "%",
    "cytotoxicity at 70.5 h": 17
  },
  {
    "molecule": "CN(C)C[C@@H]1C[C@@H]2CN(Cc3nccn3C)CC[C@@H]2N1CC1CC1",
    "unit_string": "%",
    "cytotoxicity at 70.5 h": -0.157
  },
  {
    "molecule": "CC1c2ncc(Cn3cncn3)n2CCN1CC1CCOCC1 (centres undefined)",
    "unit_string": "%",
    "cytotoxicity at 70.5 h": -5.6
  },
  {
    "molecule": "COCCOc1ncccc1C(=O)N(C)c1ccc(OC)nc1",
    "unit_string": "%",
    "cytotoxicity at 70.5 h": -8.37
  }
]
